Ref: patent US10183938B2

biological target: human α7 nAChRs transiently expressed in Xenopus laevis oocytes (Homo sapiens (Human), UniProt P36544); assay: Oocyte electrophysiology screen (TEVC); format: cell-based; details: 0.01 mM test compound, peak current relative to 0.2 mM ACh
Sequence (P36544 23-502 limits assumed): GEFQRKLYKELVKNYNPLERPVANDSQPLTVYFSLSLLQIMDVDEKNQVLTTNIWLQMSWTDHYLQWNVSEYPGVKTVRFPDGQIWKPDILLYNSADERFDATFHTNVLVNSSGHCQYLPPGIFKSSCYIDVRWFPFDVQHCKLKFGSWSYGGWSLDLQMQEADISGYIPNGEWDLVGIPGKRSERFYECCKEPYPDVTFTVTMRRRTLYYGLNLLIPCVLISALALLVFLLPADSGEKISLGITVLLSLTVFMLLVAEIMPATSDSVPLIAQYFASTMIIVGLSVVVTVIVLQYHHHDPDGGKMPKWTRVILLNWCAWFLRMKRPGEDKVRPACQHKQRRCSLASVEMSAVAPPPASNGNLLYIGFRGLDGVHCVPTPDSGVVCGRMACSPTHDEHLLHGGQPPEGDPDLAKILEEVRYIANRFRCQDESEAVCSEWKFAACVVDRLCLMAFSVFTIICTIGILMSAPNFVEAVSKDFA
Known % ACh @ 10 μM Oocyte of a selection of compounds
Please give a number only; it is taken to be in % ACh.

Ask: Given O=C(NC1C2CCN(CC2)C12CC2)c1cc2cccc(Cl)c2s1 (single isomer, unassigned; enantiomer2) [56b] , state its recorded % ACh @ 10 μM Oocyte.
Result: 0

---

target: UniProtKB P36544; test: Oocyte electrophysiology screen (TEVC); assay type: cell-based; settings: 0.01 mM test compound, peak current relative to 0.2 mM ACh
Where a name gives a salt, the structure may show the parent alone.
A collection of molecules and their measured % ACh @ 10 μM Oocyte
Only the number, expressed in % ACh, is required.

Below: 5 molecules and their reported % ACh @ 10 μM Oocyte.
# MOLECULE, UNIT_SPEC, % ACh @ 10 μM Oocyte
data = [
    ("CC1(C)[C@H](NC(=O)c2cc3ccc(-n4ccnn4)cc3s2)C2CCN1CC2.Cl [(R)-208]", "% ACh", 0),
    ("N#Cc1ccc2cc(C(=O)N[C@@H]3C4CCN(CC4)C34CC4)sc2c1 [(R)-104, hydrochloride]", "% ACh", 20),
    ("Cc1csc2cc(C(=O)N[C@@H]3C4CCN(CC4)C3(C)C)ccc12 [(R)-25, hydrochloride]", "% ACh", 7),
    ("CC1(C)[C@@H](NC(=O)c2nc3ccccc3s2)C2CCN1CC2 [(S)-29, hydrochloride]", "% ACh", 2),
    ("CC1(C)[C@@H](NC(=O)c2cnn3ncccc23)C2CCN1CC2 [(S)-27, hydrochloride]", "% ACh", 0),
]

Ask: What value of % ACh @ 10 μM Oocyte has been reported for the following molecule? CC1(C)[C@H](NC(=O)c2cc3ccccc3s2)C2CCN1CC2 [(R)-1, hydrochloride]
Result: 401

Ask: Fill blank: measured % ACh @ 10 μM Oocyte of the molecule Cc1csc2ccc(C(=O)N[C@@H]3C4CCN(CC4)C3(C)C)cc12 [(R)-24, hydrochloride] is ____.
Result: 240
